Target: Carboxy-terminal domain RNA polymerase II polypeptide A small phosphatase 1 (Homo sapiens)
Sequence (Q9GZU7 whole entry, the tested form may be a part): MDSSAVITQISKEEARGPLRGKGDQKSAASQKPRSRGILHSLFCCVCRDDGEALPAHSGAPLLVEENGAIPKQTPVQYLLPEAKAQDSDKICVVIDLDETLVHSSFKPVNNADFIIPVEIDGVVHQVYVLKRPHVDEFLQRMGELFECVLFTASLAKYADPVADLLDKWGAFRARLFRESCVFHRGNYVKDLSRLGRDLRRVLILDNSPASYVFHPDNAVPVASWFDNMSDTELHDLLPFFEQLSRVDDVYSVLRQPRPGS
Experiment: inhibitors of CTDSP1, concentration-response testing, biochemical assay, absorbance-based, actives from ultra-high-throughput screening (AID 540297)
Assay type: functional
Active and inactive are the calls of the source.
Can you tell me IC50 for the items I'm about to list?

Fill in: Carboxy-terminal domain RNA polymerase II polypeptide A small phosphatase 1 (Homo sapiens) IC50 for O=C(N/N=C/c1cc(Cl)cc([N+](=O)[O-])c1O)c1cc(-c2ccccn2)nc2ccccc12 = 1.85 µM (active)

# O=C(NNC(=O)c1ccccc1Br)c1ccc2nc[nH]c2c1 with Carboxy-terminal domain RNA polymerase II polypeptide A small phosphatase 1 (Homo sapiens): IC50 is 7.34 µM (active)

Query O=[N+]([O-])c1ccc2nc(-c3ccccc3)n(OCc3ccc(Cl)cc3)c2c1 on Carboxy-terminal domain RNA polymerase II polypeptide A small phosphatase 1 (Homo sapiens); IC50 returned: 10.1 µM (active)

###

Please provide measured EC50 for the entries that follow.
Biological target: Zinc finger protein mex-5 (Caenorhabditis elegans)
Sequence (Q9XUB2 whole entry): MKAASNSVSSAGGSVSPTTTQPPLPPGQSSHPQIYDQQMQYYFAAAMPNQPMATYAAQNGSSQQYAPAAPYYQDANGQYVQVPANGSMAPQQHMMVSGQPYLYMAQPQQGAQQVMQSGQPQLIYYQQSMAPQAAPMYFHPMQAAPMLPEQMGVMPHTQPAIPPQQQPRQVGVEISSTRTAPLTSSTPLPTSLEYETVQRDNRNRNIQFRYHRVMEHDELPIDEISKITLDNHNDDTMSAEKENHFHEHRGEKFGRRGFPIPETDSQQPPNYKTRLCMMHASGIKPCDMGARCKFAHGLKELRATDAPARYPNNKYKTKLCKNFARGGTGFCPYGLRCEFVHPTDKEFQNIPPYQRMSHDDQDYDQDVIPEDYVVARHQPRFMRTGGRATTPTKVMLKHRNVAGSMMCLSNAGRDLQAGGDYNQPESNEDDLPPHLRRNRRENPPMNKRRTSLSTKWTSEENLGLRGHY
Assay: MEX-5/TCR-2 RNA interaction inhibitors, dose response, biochemical, C. elegans, fluorescence polarization (AID 1960)
Activity calls are given as the source filed them.

Item: Cc1ccc(S(=O)(=O)Nc2ccccc2F)cc1C(=O)NNC(=O)c1csc(N2CCOCC2)n1 | EC50: 23.3 µM (active)

COc1cc(NC(=O)CSc2nnc3ccc(-c4ccncc4)nn23)cc(OC)c1 yielded EC50 of > 300 µM (not active)

Quick note, EC50 for CCOc1ccc(NC(=O)COc2ccccc2)c([N+](=O)[O-])c1 landed at > 300 µM (not active)

// field: EC50; key: O=C(c1ccco1)[C@@H]1[C@@H]2C(=O)N(c3ccccc3)C(=O)[C@@H]2C2c3ccccc3C=CN21 (some centres not stated) ; value = 34.9 µM (active)

Entry COc1ccc(C(=O)NC2(C(F)(F)F)C(=O)N(Cc3ccco3)C3=C2C(=O)CC(C)(C)C3)cc1OC (configuration not stated) , EC50 reported as > 300 µM (not active)

response.value for Cc1c(N=C2Nc3cccc4cccc2c34)c(=O)n(-c2ccccc2)n1C (field: EC50) = > 300 µM (not active)

Entry Cc1ccc(C(=O)Oc2oc(-c3ccccc3)nc2/C=N/c2ccc(N(C)C)cc2)cc1 — recorded EC50 = > 300 µM (inconclusive)

###

Target: Protein skinhead-1 (Caenorhabditis elegans)
Sequence (P34707 whole entry): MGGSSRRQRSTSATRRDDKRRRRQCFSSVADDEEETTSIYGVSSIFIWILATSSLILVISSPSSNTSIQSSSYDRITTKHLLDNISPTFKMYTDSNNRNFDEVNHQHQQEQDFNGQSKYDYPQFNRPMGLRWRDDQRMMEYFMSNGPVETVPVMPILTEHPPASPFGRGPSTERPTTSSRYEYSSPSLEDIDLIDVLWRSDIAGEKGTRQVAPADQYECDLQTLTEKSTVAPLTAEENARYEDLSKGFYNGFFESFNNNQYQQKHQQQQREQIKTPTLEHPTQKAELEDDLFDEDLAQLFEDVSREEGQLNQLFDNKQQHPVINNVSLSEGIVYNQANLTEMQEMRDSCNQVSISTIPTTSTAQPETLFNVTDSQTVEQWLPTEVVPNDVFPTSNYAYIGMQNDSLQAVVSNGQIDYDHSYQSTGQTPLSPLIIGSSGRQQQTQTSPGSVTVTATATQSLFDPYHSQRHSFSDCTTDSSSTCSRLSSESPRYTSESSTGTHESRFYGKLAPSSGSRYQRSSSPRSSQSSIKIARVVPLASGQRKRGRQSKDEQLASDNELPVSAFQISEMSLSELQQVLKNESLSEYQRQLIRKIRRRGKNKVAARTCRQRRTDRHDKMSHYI
Type: functional
Activity calls are given as the source filed them.
Your reply should match one of these outcome classes. true = active, false = inactive

[Q] Kindly provide the recorded test outcome for the following compound: CNC(=O)c1c(NC(=O)c2ccc(N3C(=O)CCC3=O)cc2)sc2c1CCC(C)C2 (stereo not given)
[A] false

[Q] What is the recorded call for this compound in the test? COC(=O)c1cc2sccc2n1Cc1ccc(C)cc1
[A] false

[Q] // return assay outcome for CCN(CC(=O)NCc1ccc(F)cc1)Cc1nc(O)c2ccc(Cl)cc2n1
[A] false

[Q] Tell me the assay call for Cn1c(-c2ccco2)nc2cc3ccccc3cc21 please.
[A] true

[Q] Could you please tell me the result logged for CN(C(=O)OC(C)(C)C)c1ccc(-c2nc3ccccc3s2)cc1 in this assay?
[A] false

###

Target: Heat shock factor protein 1 (Mus musculus)
Sequence (P38532 whole entry): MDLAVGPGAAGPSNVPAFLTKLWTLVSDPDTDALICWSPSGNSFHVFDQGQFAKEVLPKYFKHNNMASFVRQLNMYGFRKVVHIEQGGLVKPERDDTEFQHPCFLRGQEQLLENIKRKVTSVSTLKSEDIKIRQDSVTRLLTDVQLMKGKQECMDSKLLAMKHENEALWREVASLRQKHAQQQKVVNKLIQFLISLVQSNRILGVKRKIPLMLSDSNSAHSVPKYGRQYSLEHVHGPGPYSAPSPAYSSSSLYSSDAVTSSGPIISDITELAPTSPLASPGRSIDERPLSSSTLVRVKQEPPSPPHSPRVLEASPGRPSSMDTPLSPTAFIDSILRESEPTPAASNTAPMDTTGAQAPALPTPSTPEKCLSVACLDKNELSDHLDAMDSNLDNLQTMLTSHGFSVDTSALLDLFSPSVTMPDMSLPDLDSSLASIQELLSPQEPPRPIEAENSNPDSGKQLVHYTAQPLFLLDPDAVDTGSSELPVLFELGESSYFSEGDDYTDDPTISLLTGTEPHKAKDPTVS
Test: inhibition of MG132-induced HSE-luciferase signal, confirmation, cell-based, NIH3T3, luminescence, dose retest (AID 2382);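 further: NIH3T3 fibroblasts with HSF1-driven luciferase reporter stressed by proteasome inhibitor MG132; luminescence from HSF1-driven luciferase expression after 8 hours of MG132 stress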
Assay type: functional
Calls of active or inactive are those of the source.
Task for the reader: assign each of the following molecules its reported EC50.

Note to self: EC50 recorded for COc1ccc(-n2nc(C(=O)NCC(=O)NCc3ccccc3OC)c3ccccc3c2=O)c(OC)c1 was > 195 µM (not active)

The molecule identified as CC1=C(C#N)c2nc(N)c(C#N)c(C)c2/C1=C\c1ccc(OCC(=O)O)c(Cl)c1 registered its EC50 at > 195 µM (not active)

Lookup result for C/C(=C/C(=O)N1CCN(C)CC1)C(=O)O ; measured EC50: 36.8 µM (active)

Entry O=C(OCn1ncc(Cl)c(Cl)c1=O)c1ccccc1Cl ; EC50 = 1.99 µM (active)

For reference, reported EC50 for O=C(O)/C=C\C(=O)Nc1ccc(OCc2ccccc2)cc1 stands at 31 µM (active)

Reported EC50 ( COc1cc(NS(=O)(=O)c2ccc(NC(=S)NC(=O)/C=C/c3ccc(OC)c(OC)c3)cc2)ncn1 ) = > 195 µM (not active)

// CC(C)c1nc(SCC(=O)c2ccc(F)cc2)c2ccccc2n1 : EC50 value = > 195 µM (not active)

From: ChEMBL document CHEMBL1201862
